Molecular target: T1, Plasmodium falciparum histidine-rich protein II (HRP-II) (Plasmodium falciparum, UniProt P05227 22-332)
T1 construct: Coating antigen of all ELISAs; also called HRP-II protein; MA-HRPII Ag protein
T1 sequence (looked up): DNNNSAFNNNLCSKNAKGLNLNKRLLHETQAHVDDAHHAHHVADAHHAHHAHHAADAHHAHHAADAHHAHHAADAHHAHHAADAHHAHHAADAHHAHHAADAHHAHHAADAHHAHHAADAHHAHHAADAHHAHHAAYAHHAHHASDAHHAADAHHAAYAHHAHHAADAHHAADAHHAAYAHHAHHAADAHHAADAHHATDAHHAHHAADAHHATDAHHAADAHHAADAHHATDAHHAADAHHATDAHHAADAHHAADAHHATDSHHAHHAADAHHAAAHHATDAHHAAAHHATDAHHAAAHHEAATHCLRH
Assay: indirect ELISA, four antigen coating concentrations;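 further: optical density read across an antibody dilution series at each antigen coating level, curves plotted on log scale, KD derived as reciprocal of the averaged constant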
// NB: equality with 0.2 nM counts as Not fulfilled; only Kd strictly below is Fulfilled

[[record]]
binder = "Mutation 1-21 (antibody, mouse IgG2b, kappa, V domains shown, Mutation 1 as framework) VH: EVQLQQSGPEVVKPGASVKISCKASGTTLTDYYMNWVKQSHGKGLEWIGDLNPIQGGTAYNQKFRDKATLTVDKSSNTAYMELRSLTSEDSALYYCTRGAEDYWGQGTTLTVSS VL: DVVLTQTPLSLSVTIGQPASISCKSSQSLLYSQGKIYLNWFQQRPGQSPKRLMYQLSKLEPGIPDRFSGSGSETDFTLKISRVEAEDLGVYYCLQGTYTPQTFGGGTKLEIKR"
group_label = "Fulfilled"

[[record]]
binder = "Mutation 1-10 (antibody, mouse IgG2b, kappa, V domains shown, Mutation 1 as framework) VH: EVQLQQSGPEVVKPGASVKISCKASGYTITDYYMNWVKQSHGKGLEWIGDINPINGGTAYNQKFRDKATLTVDKSSNTAYMELRSLTSEDSALYYCTRGAEDYWGQGTTLTVSS VL: DVVLTQTPLSLSVTIGQPASISCKSSQSLLYSNGKIYLNWFQQRPGQSPKRLMYQVSKLDPGIPDRFSGSGSETDFTLKISRVEAEDLGVYYCLQGTYYPQTFGGGTKLEIKR"
group_label = "Not fulfilled"

[[record]]
binder = "Mutation 1-35 (antibody, mouse IgG2b, kappa, V domains shown, Mutation 1 as framework) VH: EVQLQQSGPEVVKPGASVKISCKASGYTITDYYMNWVKQSHGKGLEWIGDVNPIQGGTAYQQKFRDKATLTVDKSSNTAYMELRSLTSEDSALYYCTRGAEDYWGQGTTLTVSS VL: DVVLTQTPLSLSVTIGQPASISCKSSQSLLYSNGKIYLNWFQQRPGQSPKRLMYQVSKLEPGIPDRFSGSGSETDFTLKISRVEAEDLGVYYCLQATYYPQTFGGGTKLEIKR"
group_label = "Not fulfilled"

[[record]]
binder = "Mutation 1-34 (antibody, mouse IgG2b, kappa, V domains shown, Mutation 1 as framework) VH: EVQLQQSGPEVVKPGASVKISCKASGTTLTDYYMNWVKQSHGKGLEWIGDINPINGGTAYQQKFRDKATLTVDKSSNTAYMELRSLTSEDSALYYCTRGAEDYWGQGTTLTVSS VL: DVVLTQTPLSLSVTIGQPASISCKSSQSLLYSNGKIYLNWFQQRPGQSPKRLMYQVSKLDPGIPDRFSGSGSETDFTLKISRVEAEDLGVYYCLQGTYTPQTFGGGTKLEIKR"
group_label = "Fulfilled"

[[record]]
binder = "Mutation 1-6 (antibody, mouse IgG2b, kappa, V domains shown, Mutation 1 as framework) VH: EVQLQQSGPEVVKPGASVKISCKASGYTITDYYMNWVKQSHGKGLEWIGDLNPIQGGTAYNQKFRDKATLTVDKSSNTAYMELRSLTSEDSALYYCTKGAEDYWGQGTTLTVSS VL: DVVLTQTPLSLSVTIGQPASISCKSSQSLIYSNGKIYLNWFQQRPGQSPKRLMYQISKLDPGIPDRFSGSGSETDFTLKISRVEAEDLGVYYCLQATYSPQTFGGGTKLEIKR"
group_label = "Not fulfilled"

[[record]]
binder = "Mutation 1 (antibody, mouse IgG2b, kappa, V domains shown, also called Variant 1) VH: EVQLQQSGPEVVKPGASVKISCKASGSTLTDYYMNWVKQSHGKGLEWIGDLNPINGGTAYQQKFRDKATLTVDKSSNTAYMELRSLTSEDSALYYCTRGAEDYWGQGTTLTVSS VL: DVVLTQTPLSLSVTIGQPASISCKSSQSIIYSNGKIYLNWFQQRPGQSPKRLMYQLSKLDPGIPDRFSGSGSETDFTLKISRVEAEDLGVYYCLQGTYSPQTFGGGTKLEIKR"
group_label = "Fulfilled"

[[record]]
binder = "Mutation 1-4 (antibody, mouse IgG2b, kappa, V domains shown, Mutation 1 as framework) VH: EVQLQQSGPEVVKPGASVKISCKASGYTLTDYYMNWVKQSHGKGLEWIGDINPINGGTAYQQKFRDKATLTVDKSSNTAYMELRSLTSEDSALYYCTKGAEDYWGQGTTLTVSS VL: DVVLTQTPLSLSVTIGQPASISCKSSQSILYSNGKIYLNWFQQRPGQSPKRLMYQVSKLDPGIPDRFSGSGSETDFTLKISRVEAEDLGVYYCLQATYYPQTFGGGTKLEIKR"
group_label = "Not fulfilled"

